Cited source for all entries: patent US20230357429A1

biological target: T1, TCE-28 (anti-CD3 scFv S235A; anti-TROP2 wt); experiment: competition ELISA, TCE on captured CD3
T1 construct: scFv on the Fab heavy chain
Where no end group is shown, it is not given here.
outcome_measure: pIC50
Please note pIC50 is a logarithmic value: minus log10 of concentration in mol/L. Answer with that number alone.

Reported pIC50 of VYCGPEFDESVGCA (cysteine pairing not given here; also: biotinylated, site not given here, mask peptide for the CD3 scFv) [Peptide-73] : 7.00
